# test_method_notes: Study 1: pharmacokinetics of 10 mg fixed dose oral HC in adrenal-insufficient patients
# Type: in vivo, human
# setup_conditions: both sexes, human, serum, po, 10 mg, 10 mg oral, fed, mean±S.E.M.; read-out: absorption half-life
measurement_label: half-life (min)
Please reply with the bare figure in min and do not write the unit itself.

Bench note: what half-life did C[C@]12CCC(=O)C=C1CC[C@@H]1[C@@H]2[C@@H](O)C[C@@]2(C)[C@H]1CC[C@]2(O)C(=O)CO [hydrocortisone, Hydrocortisone] show?
43

====

# test_method_notes: Study 1: pharmacokinetics of 10 mg fixed dose oral HC in adrenal-insufficient patients
# Format: in vivo, human
# setup_conditions: both sexes, human, serum, po, 10 mg, 10 mg oral, fasted, mean±S.E.M.; read-out: absorption half-life
measurement_label: half-life (min)
Please reply with the bare figure in min and do not write the unit itself.

Bench note: what half-life did C[C@]12CCC(=O)C=C1CC[C@@H]1[C@@H]2[C@@H](O)C[C@@]2(C)[C@H]1CC[C@]2(O)C(=O)CO [hydrocortisone, Hydrocortisone] show?
15
